Listed molecules paired with reported T/C
- Test system: L1210 leukemia ip in BDF1 mice, survival T/C
- Experiment summary: NCI In Vivo Anticancer Drug Screen. Data for tumor model L1210 Leukemia (intraperitoneal) in B6D2F1 (BDF1) mice
- Condition summary: endpoint: mean survival time; dose: 200.0 mg/kg/injection; schedule: Q04DX002 (ip); vehicle: saline; higher = longer survival
Inconclusive results and toxic doses are left out.
Quantity measured: T/C

1. NC(=O)NC(=O)Nc1ccccc1 :: 96 % of control
2. O=C1OC(c2ccc(Cl)cc2)=N/C1=C\c1ccc(Cl)c(Cl)c1 :: 92 % of control
3. Cc1cn(CCC(N)C(=O)O)c(=O)[nH]c1=O (configuration not stated) :: 89 % of control
4. CCCC#CC(=O)OCCCCCC :: 111 % of control
5. CCCC(=O)N1CCCC1 :: 103 % of control
6. CCOCCOCCOC(C)Oc1cc(OC)ccc1OC (configuration not stated) :: 93 % of control
7. CNC1C(O)C(OC2C(N)CC(N)C(OC3OC(CN)C(O)C(O)C3O)C2O)OCC1(C)O (configuration not stated) :: 100 % of control

###

- System: L1210 leukemia ip in BDF1 mice, survival T/C
- Experiment summary: NCI In Vivo Anticancer Drug Screen. Data for tumor model L1210 Leukemia (intraperitoneal) in B6D2F1 (BDF1) mice
- Condition summary: endpoint: mean survival time; dose: 25.0 mg/kg/injection; schedule: Q04DX003 (ip); vehicle: Klucel (hydroxypropylcellulose) (HPC); higher = longer survival
Inconclusive results and toxic doses are left out.
Catalogue of T/C values
Quantity measured: T/C

1) O=C(O)C(Cc1ccccc1)C(=O)O.[NH2-].[NH2-].[Pt+2] :: 102 % of control
2) CCCc1ccccc1NC(=O)NCCCl :: 106 % of control
3) [Cl][Pt+2][Cl].[NH-]C1CCC1.[NH-]C1CCC1 :: 110 % of control
4) Nc1nc(N)c(N)c(=O)[nH]1 :: 103 % of control
5) BrCCCC[P+](c1ccccc1)(c1ccccc1)c1ccccc1 :: 106 % of control
6) CCCCCCCC1CCC(N)CC1 (configuration not stated) :: 91 % of control
7) CCOC(=O)C(=O)C(C#N)C(=O)OCC (configuration not stated) :: 100 % of control

###

- Test system: L1210 leukemia ip in BDF1 mice, survival T/C
- Experiment summary: NCI In Vivo Anticancer Drug Screen. Data for tumor model L1210 Leukemia (intraperitoneal) in B6D2F1 (BDF1) mice
- Condition summary: endpoint: mean survival time; dose: 200.0 mg/kg/injection; schedule: Q04DX003 (ip); vehicle: saline with Tween-80; higher = longer survival
- Protocol: The antitumor activity of compounds was measured in mice bearing transplantable tumors. Survival or tumor size were measured and the results are expressed as the measurement made in the treated group (T) divided by the measurement made in the vehicle treated control group (C). The tumor model used in this assay is L1210 Leukemia (intraperitoneal) in B6D2F1 (BDF1) mice
Toxic doses and inconclusive results are not listed.
Reported T/C values are given for each entry in this list.
Quantity measured: T/C

1) CCC(CO)NC(=O)Nc1cccc2ccccc12 (configuration not stated) :: 100 % of control
2) CCCCCCCCCCCCCCCC(=O)N(CCCN)C(C)CCCN(CC)CC (configuration not stated) :: 103 % of control
3) S=P(S)(c1ccccc1)c1ccccc1 :: 94 % of control
4) Brc1ccc(N2N=NC3CN(c4ccccc4)CC32)cc1 (configuration not stated) :: 91 % of control
5) C=CCOc1ccccc1OC :: 112 % of control
6) CCOC(=O)C(=O)c1ccc[nH]1 :: 101 % of control
7) FC(F)(F)c1nn[nH]n1 :: 108 % of control

###

Entries and their T/C values follow.
- Test system: L1210 leukemia ip in BDF1 mice, survival T/C
- Experiment summary: NCI In Vivo Anticancer Drug Screen. Data for tumor model L1210 Leukemia (intraperitoneal) in B6D2F1 (BDF1) mice
- Condition summary: endpoint: mean survival time; dose: 100.0 mg/kg/injection; schedule: Q01DX009 (ip); vehicle: other; higher = longer survival
Inconclusive results and toxic doses are left out.
Quantity measured: T/C

1) ClC1(Cl)C2C=CC=CCC21 (configuration not stated) :: 103 % of control
2) OCc1ccc(OCc2ccccc2)c(OCc2ccccc2)c1 :: 87 % of control
3) N#CCCN(CCC#N)/N=N\c1nc[nH]c1C(N)=O :: 101 % of control
4) CNc1ccccc1[N+](=O)[O-] :: 104 % of control
5) O=[N+]([O-])c1cccc2ncsc12 :: 104 % of control
6) O=C(Nc1ccc(C(Cl)(Cl)Cl)cc1)Nc1cc(Cl)ccc1Cl :: 95 % of control
7) CC(=O)c1ccc2ccccc2c1O :: 97 % of control

###

- Tested on: L1210 leukemia ip in BDF1 mice, survival T/C
- Experiment summary: NCI In Vivo Anticancer Drug Screen. Data for tumor model L1210 Leukemia (intraperitoneal) in B6D2F1 (BDF1) mice
- Condition summary: endpoint: mean survival time; dose: 20.0 mg/kg/injection; schedule: Q01DX001 (ip); vehicle: saline
Toxic doses and inconclusive results are not listed. No stated cut-off is given here; in the data, active means T/C of 150% or more; inactive means T/C below 125%.
Outcomes: active, inactive

1) CCCCCCCCCC[n+]1cccc(C#N)c1 :: inactive
2) BrC1=C(Br)C(Br)(Br)C(Br)=C1Br :: inactive
3) C[N+]1(CCNC2=CC(=O)C(NCC[N+]3(C)CCOCC3)=CC2=O)CCOCC1 :: inactive
4) C=C[N+](C)(C)C :: inactive
5) CCCCCCOP(=O)(N1CC1)N1CC1 :: active
6) C/C=C(/Cl)C(=O)O :: inactive
7) CCOC(=O)C1=NC=NC1=[N+]=[N-] :: inactive

###

- Tested on: L1210 leukemia ip in BDF1 mice, survival T/C
- Experiment summary: NCI In Vivo Anticancer Drug Screen. Data for tumor model L1210 Leukemia (intraperitoneal) in B6D2F1 (BDF1) mice
- Condition summary: endpoint: mean survival time; dose: 400.0 mg/kg/injection; schedule: Q04DX003 (ip); vehicle: saline with Tween-80; higher = longer survival
Toxic doses and inconclusive results are not listed.
Property: T/C; scope: individual molecules
Quantity measured: T/C

1. CCOC1OC(C(O)CO)C(O)C1O (centres undefined) :: 96 % of control
2. CC(=O)Nc1ccc(/C=C/C(=O)c2ccc([N+](=O)[O-])cc2)cc1 :: 90 % of control
3. CC=NC(C[S-])C(=O)O.CC=NC(C[S-])C(=O)O.[Fe+2] (centres undefined) :: 88 % of control
4. O=C1c2ccccc2C(=O)N1N1C(=O)c2ccccc2C1=O :: 97 % of control
5. C=CCc1ccc(OCC(N)=O)c(OC)c1 :: 109 % of control
6. BrC(Br)c1ccc(C(Br)Br)cc1 :: 94 % of control
7. O=C(Nc1ccc(Cl)cc1Cl)c1cc(Cl)cc(Cl)c1Br :: 92 % of control
8. NC(=O)c1cc([N+](=O)[O-])ccc1Cl :: 101 % of control
9. Oc1ccc(N=Cc2ccc(C=Nc3ccc(O)cc3)cc2)cc1 :: 100 % of control
10. Cc1ccc(C2OC23CC(C)(C)c2ccccc2C3=O)cc1 (centres undefined) :: 93 % of control
11. COc1ccc(Br)cc1CCCO :: 95 % of control
12. O=C1CNC(=O)N1c1cccc(Cl)c1 :: 102 % of control
13. N#Cc1ccc[n+]([O-])c1 :: 97 % of control
14. Cc1ccc(NC(=O)Nc2cccc(Cl)c2C)cc1NC(=O)Nc1cccc(Cl)c1C :: 91 % of control
15. OC(c1cc(C(F)(F)F)nc2c(F)cccc12)C1CCCCN1 (centres undefined) :: 96 % of control
16. CNC(=O)Nc1ccncc1 :: 91 % of control
17. CC1CCCCN1C(=O)Nc1ccccc1C(F)(F)F (centres undefined) :: 91 % of control
18. CC(C)CC(C)OC(C[N+](=O)[O-])C(Cl)(Cl)Cl (centres undefined) :: 98 % of control
19. CON1C(=O)C2(CCCCC2)C2=NOC3C(Br)CCCC231 (centres undefined) :: 95 % of control
20. O=C(Cl)c1ccc(N2C(=O)c3ccccc3C2=O)cc1[N+](=O)[O-] :: 100 % of control
21. C=CCn1c(=S)[nH]c2ccccc2c1=O :: 96 % of control
22. O=C(Nc1ccc(C(=O)Cl)cc1)OCCCl :: 96 % of control
23. CC(=O)Nc1ccc(/C=C/C(=O)c2ccc(Cl)cc2)cc1 :: 90 % of control
24. O/N=C1/CCCC/C1=C/c1ccccc1Cl :: 100 % of control
25. COC1OC2COc3ccccc3OC2C(N=Cc2ccccc2)C1O (centres undefined) :: 98 % of control
26. CC(C)(OC(=O)C(NC=O)C(C)(C)S)OC(=O)C(NC=O)C(C)(C)S (centres undefined) :: 100 % of control
27. CC1(C)CC2(OC2c2cccc(Cl)c2)C(=O)c2ccccc21 (centres undefined) :: 89 % of control
28. CCC(C)(C)c1ccc(Oc2ccccc2)c(N)c1 :: 98 % of control
29. O=C1NOCC1NCc1c(O)ccc2ccccc12 (centres undefined) :: 97 % of control
30. O=[N+]([O-])c1ccc2nc(-c3ccc(S(=O)(=O)F)cc3)cc(Cl)c2c1 :: 98 % of control
31. O=[N+]([O-])c1cccc(/C=C/C=C/c2ccc(S(=O)(=O)F)cc2Cl)c1 :: 90 % of control
32. O=C(O)C(O)(c1ccccc1)C(O)c1ccccc1 (centres undefined) :: 95 % of control
33. COc1cc(OC)c(Br)cc1C :: 104 % of control
34. O=C(Nc1ccccc1)Nc1ccc([N+](=O)[O-])cc1O :: 100 % of control
35. CC1=NC(=NC(=O)c2ccccc2)N=C1 :: 96 % of control
36. C=C(Br)CNC(=O)C(C)(C)C :: 98 % of control
37. CC(=O)CC(C)=Nc1ccc([N+](=O)[O-])cc1 :: 89 % of control
38. c1ccc(P2(c3ccccc3)(c3ccccc3)C3C4C5C6C4C2C6C53)cc1 (centres undefined) :: 90 % of control
39. O=C(O)CNC(=O)Nc1ccccc1 :: 97 % of control
40. C#CC1(OCC(CCl)OC(N)=O)CCCCC1 (centres undefined) :: 86 % of control
41. Cc1ccc(NC(=S)NNC(=S)NNc2ccccc2)cc1C :: 91 % of control
42. N#CC(C#N)=NNc1ccc(S(=O)(=O)O)cc1 :: 102 % of control
43. Nc1nc(CNc2ccccc2)nc(Nc2ccccc2)n1 :: 89 % of control
44. COc1cc(Oc2c(OC)cc(/C(C)=N/O)cc2OC)cc(OC)c1OC :: 95 % of control
